Data provenance: patent US20240327509A1

// values below are reported kon
Tested On: T1, Recombinant human CXCL16 (rhCXCL16) protein (human, UniProt Q9H2A7 30-118, limits assumed)
T1 construct: Bought recombinant protein (976-CX, R&D systems); also called CXCL16 antigen; 976-CX (R&D systems)
T1 sequence: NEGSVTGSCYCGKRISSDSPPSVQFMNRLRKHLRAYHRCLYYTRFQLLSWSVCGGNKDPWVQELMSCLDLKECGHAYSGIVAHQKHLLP
Test Details: BLI (ForteBio), antibody captured on biosensor, rhCXCL16 in solution, 25 C
Give a bare numeral; the unit M⁻¹ s⁻¹ is implied.

Some binders with known kon results, for comparison:
Binder | Metric | Quantitative Result
HC5LC2 (antibody, human IgG1, kappa, V domains shown, Humanized; human IgG1 / kappa constant domains; also called HCSLC2; humanized CXCL16 antibody HC5LC2) VH: EVQLVESGGGLVQPGGSLKLSCAASGFTFSNAVMNWVRQASGKGLEWVARIRTKPNNYATFYADSVKGRFTFSRDDSKNTAYLQMNSLKTEDTAMYYCTAWTTEGIYWGQGTLVTVSS VL: DIVMTQSPSSLAVSLGETATINCKSSQSLLYSGNQKNYLAWYQQKPGQPPKLLIYWASTRQSGVPDRFTGSGAGTDFTLTISSVQAEDLAIYYCQQYYDTPWTFGGGTKVEIKR | kon | 24300
HC4LC1 (antibody, human IgG1, kappa, V domains shown, Humanized; human IgG1 / kappa constant domains; also called humanized CXCL16 antibody HC4LC1) VH: EVQLVESGGGLVKPGGSLRLSCAASGFTFSNAVMNWVRQAPGKGLEWVARIRTKPNNYATFYADSVKGRFTFSRDDSKNTLYLQMNSLKTEDTAVYYCTAWTTEGIYWGQGTTVTVSS VL: DIVMTQSPDSLAVSAGETVTINCKSSQSLLYSGNQKNYLAWYQQKPGQSPKLLIYWASTRQSGVPDRFSGSGSGTDFTLTISSVQAEDVAVYYCQQYYDTPWTFGGGTKVEIKR | kon | 17400
HC5LC5 (antibody, human IgG1, kappa, V domains shown, Humanized; human IgG1 / kappa constant domains; also called HCSLCS; humanized CXCL16 antibody HC5LC5) VH: EVQLVESGGGLVQPGGSLKLSCAASGFTFSNAVMNWVRQASGKGLEWVARIRTKPNNYATFYADSVKGRFTFSRDDSKNTAYLQMNSLKTEDTAMYYCTAWTTEGIYWGQGTLVTVSS VL: DIVMTQSPSSLAVSAGERATINCKSSQSLLYSGNQKNYLAWYQQKPGQSPKLLIYWASTRQSGVPDRFIGSGSGTDFTLTISSLQAEDVAIYYCQQYYDTPWTFGGGTKLELKR | kon | 18200

Turning now to a further record.
Incoming: Name the recorded kon for HC5LC1 (antibody, human IgG1, kappa, V domains shown, Humanized; human IgG1 / kappa constant domains; also called HCSLC1; humanized CXCL16 antibody HC5LC1) VH: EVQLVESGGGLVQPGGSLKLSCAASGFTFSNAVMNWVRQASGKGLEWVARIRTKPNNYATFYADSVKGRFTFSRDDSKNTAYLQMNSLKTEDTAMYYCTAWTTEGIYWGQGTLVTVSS VL: DIVMTQSPDSLAVSAGETVTINCKSSQSLLYSGNQKNYLAWYQQKPGQSPKLLIYWASTRQSGVPDRFSGSGSGTDFTLTISSVQAEDVAVYYCQQYYDTPWTFGGGTKVEIKR .
Outgoing: 18300
